- Test system: HEK-293T
- assay info: Multiplex assay against HEK293T
- Format: toxicity, cell-based
- test conditions: human, 12 h, 10 µM, compound concentration 10 uM, replicate 2
Assign Population Membrane Permeable-Phenotype (%) to each entry below.

Sample COc1cc(N2CCC(N(C)C)CC2)ccc1Nc1ncc(Cl)c(Nc2ccccc2P(C)(C)=O)n1 — what was its Population Membrane Permeable-Phenotype (%)?
3%

What value of measured Population Membrane Permeable-Phenotype (%) is listed for CNC(=O)c1cc(Oc2ccc(NC(=O)Nc3cc(C(C)(C)C)nn3-c3ccc4ncccc4c3)c(F)c2)ccn1 [REBASTINIB] ?
9%

Could you tell me which Population Membrane Permeable-Phenotype (%) is on file for CCc1cc2c(cc1CC)CC(NC[C@H](O)c1ccc(O)c3[nH]c(=O)ccc13)C2 [INDACATEROL] ?
3%

Fill in the blank: the reported Population Membrane Permeable-Phenotype (%) of CC(=O)c1cc(-c2cc(C(=O)NC3CC3)ccc2C)c2ncccn12 is ____.
5%

* * *

- Tested on: HEK-293T
- assay info: Multiplex assay against HEK293T
- Type: toxicity, cell-based
- test conditions: human, 24 h, 1 µM, compound concentration 1 uM, replicate 2
Cut-off 7% on Population Pyknosed Nuclei (%), inclusive. At or above means True; below means False.

Please check the record CNC(=O)c1cc(Oc2ccc(NC(=O)Nc3cc(C(C)(C)C)nn3-c3ccc4ncccc4c3)c(F)c2)ccn1 and state if its Population Pyknosed Nuclei (%) is at or above 7%.
False

Dear colleague, could you confirm whether COc1cc(N2CCC(N(C)C)CC2)ccc1Nc1ncc(Cl)c(Nc2ccccc2P(C)(C)=O)n1 has Population Pyknosed Nuclei (%) at or above 7%?
False

Please check the record Cc1cc2c(cc1N1C(=O)c3cccc4c(CCCO)ccc(c34)C1=O)n(C)c(=O)n2C and state if its Population Pyknosed Nuclei (%) is at or above 7%.
True

Could you verify whether the entry COc1cc2c(NC3CCN(C(C)C)CC3)nc(N3CCC(F)(F)CC3)nc2cc1OCCCN1CCCC1 shows Population Pyknosed Nuclei (%) of no less than 7%?
True

* * *

- Tested on: HEK-293T
- assay info: Multiplex assay against HEK293T
- Assay type: toxicity, cell-based
- test conditions: human, 48 h, 1 µM, compound concentration 1 uM, replicate 2
Lab note: anything with Population Mitochondria Different-Phenotype (%) at or over 5% counts as yes (1); the rest go in no (0).

Has COc1ccc(NS(=O)(=O)c2sc3ccc(Cl)cc3c2C)cc1N1CCNCC1.Cl a recorded Population Mitochondria Different-Phenotype (%) greater than or equal to 5%?
yes (1)

Decide: is the reported value of Population Mitochondria Different-Phenotype (%) for COc1cc2c(NC3CCN(C(C)C)CC3)nc(N3CCC(F)(F)CC3)nc2cc1OCCCN1CCCC1 equal to or greater than 5%?
yes (1)

Reported Population Mitochondria Different-Phenotype (%) reaches at least 5% for CCCn1c(=O)c2[nH]c(C34CC5CC(CC3C5)C4)nc2n(CCC)c1=O ?
yes (1)

Given O=C(O)c1ccc2cc(-c3ccc(O)c(C45CC6CC(CC(C6)C4)C5)c3)ccc2c1 , state whether its Population Mitochondria Different-Phenotype (%) is at least 5%.
no (0)

Does the molecule Nc1ccc(C(=O)Nc2cccc(-c3nc(N4CCOCC4)c4oc5ncccc5c4n3)c2)cn1 have recorded Population Mitochondria Different-Phenotype (%) that is 5% or more?
yes (1)

Given CC(=O)c1cc(-c2cc(C(=O)NC3CC3)ccc2C)c2ncccn12 , state whether its Population Mitochondria Different-Phenotype (%) is at least 5%.
yes (1)

Check this molecule for Population Mitochondria Different-Phenotype (%) at or above 5%: CCc1cc2c(cc1CC)CC(NC[C@H](O)c1ccc(O)c3[nH]c(=O)ccc13)C2
yes (1)

In plain terms: is recorded Population Mitochondria Different-Phenotype (%) at least 5% for Cl.Cl.Nc1ncnc2c1c(-c1cccc(OCc3ccccc3)c1)cn2[C@H]1C[C@@H](CN2CCC2)C1 ?
yes (1)

Identify whether the reported Population Mitochondria Different-Phenotype (%) of the following molecule is 5% or greater: CCn1c(-c2nonc2N)nc2cnc(Oc3cccc(NC(=O)c4ccc(OCCN5CCOCC5)cc4)c3)cc21 [GSK-269962A]
yes (1)

Population Mitochondria Different-Phenotype (%) >= 5% for CCC(=O)O[C@]1(C(=O)SCF)[C@H](C)C[C@H]2[C@@H]3C[C@H](F)C4=CC(=O)C=C[C@]4(C)[C@@]3(F)[C@@H](O)C[C@@]21C [FLUTICASONE PROPIONATE] ?
no (0)

Evaluate CC(C)N1CCC(C)(C)c2cc(C#Cc3ccc(C(=O)O)cc3)ccc21 : Population Mitochondria Different-Phenotype (%) at minimum 5%?
no (0)

Does Nc1nc2c(c(N3CCNCC3)n1)CCC1=C2[C@@H]2CCCC[C@@H]2O1 have a reported Population Mitochondria Different-Phenotype (%) of at least 5%?
yes (1)

Could you tell me if the measured Population Mitochondria Different-Phenotype (%) of CNc1oc(-c2cccc3ccccc23)nc1C#N reaches 5% or more?
no (0)

Exam item: decide whether the reported Population Mitochondria Different-Phenotype (%) for Cc1cc2c(cc1N1C(=O)c3cccc4c(CCCO)ccc(c34)C1=O)n(C)c(=O)n2C is at least 5%.
yes (1)
